Measured values drawn from patent US20210380675A1 for this set.

Molecular target: T1, human IL-36γ, truncated (human, UniProt Q9NZH8 18-169)
T1 sequence: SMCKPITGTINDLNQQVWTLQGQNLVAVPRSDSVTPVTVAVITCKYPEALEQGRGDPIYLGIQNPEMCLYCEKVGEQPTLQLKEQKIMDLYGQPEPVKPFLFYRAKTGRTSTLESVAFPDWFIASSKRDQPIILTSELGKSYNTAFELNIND
Assay: cell-based or functional assay
measurement_label: IC50 of IL-8 secretion, primary human monocytes, 6 nM human IL-36γ, FIG. 5C (nM)
Just the number please, in nM, no unit attached.

Worked set:
Report IC50 of IL-8 secretion, primary human monocytes, 6 nM human IL-36γ, FIG. 5C for m/h 144D666C (antibody, human IgG1, lambda, V domains shown, Mouse VH/VL joined to human IgG1 constant and human Ig lambda (IGLC2) constant; also called chimeric mouse/human 144D666C) VH: EVQLQQSGAELVKPGASVKLTCTASGFNIKDTYIYWVKQRPAQGLEWIGRIDPANAYTKFDPKFQGKATLTADTSSNTAYLQLSSLTSEDTAVYYCTRFHWYGSSFFFDYWGQGTTLTVSS VL: QAVVTQESALTTSPGETVTLTCRSSTGAVTTSNYANWVQEKPDHLFTGLIGGTDNRPPGVPARFSGSLIGDKAALTITGAQTEDEAIYFCALWYSNLWVFGGGTKLTVLG please.
9.02

Fill blank: measured IC50 of IL-8 secretion, primary human monocytes, 6 nM human IL-36γ, FIG. 5C of the binder 144L180A (antibody, V domains shown) VH: EVQLQQSGAELVKPGASVKLSCTASGFNIKDTYIYWVKQRPEQGLEWIGRIDPANGYTRYDPKFQGKATMTADTSSNTAYLQLSSLTSEDTAVYYCARYEYYDSSFYFDYWGQGTTLTVSS VL: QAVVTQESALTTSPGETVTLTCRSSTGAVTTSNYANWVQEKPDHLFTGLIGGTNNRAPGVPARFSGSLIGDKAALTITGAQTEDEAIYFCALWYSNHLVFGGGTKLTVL is ____.
5.49

Attention now shifts to the item below.
If you can, please state the reported IC50 of IL-8 secretion, primary human monocytes, 6 nM human IL-36γ, FIG. 5C value of 144L472A (antibody, V domains shown, Mouse monoclonal from hybridoma; mouse IgG heavy and lambda light chain) VH: EVQLQQSGAELVKPGASVKLSCTVSGFNIKDTYMYWVKQRPEQGLEWIGRIDPANGYAKYDPKFQGKATLTADTSSNTAYLQLSSLTSEDTAVYFCARFHWYDSAFYFDFWGQGTTLTVSS VL: QAVVTQESALTTSPGETVTLTCRSSSGAVTTSNYANWVQEKPDHLFTGLIGGTNNRAPGVPARFSGSLIGDKAALTITGAQTEDEAIYFCGLWYSNHWVFGGGTKLTVL .
15.7
